These entries and their values trace back to patent US5599791A.

System: Strep. pneumoniae L44 UC41
Assay: MIC, microbroth dilution
Assay type: cell-based
Settings: inocula 10^4 to 10^5 CFU/ml, 18-24 h, 37° C.

{"columns": ["molecule", "modifier.sign", "MIC (microgram/ml)"],
 "data": [
  ["CNC(=O)CC1NC(=O)c2nc(sc2COC)C(C(C)C)NC(=O)c2csc(n2)-c2ccc(-c3nc(C(=O)NCCCCCC(=O)O)cs3)nc2-c2csc(n2)-c2csc(n2)C(C(O)c2ccccc2)NC(=O)CNC(=O)c2nc1sc2CO (stereo not drawn) [Compound 42]", "=", 1],
  ["CNC(=O)CC1NC(=O)c2nc(sc2COC)C(C(C)C)NC(=O)c2csc(n2)-c2ccc(-c3nc(C(=O)NC(CC(C)C)C(=O)O)cs3)nc2-c2csc(n2)-c2csc(n2)C(C(O)c2ccccc2)NC(=O)CNC(=O)c2nc1sc2C (stereo not drawn) [Compound 6]", "=", 2],
  ["CNC(=O)CC1NC(=O)c2nc(sc2COC)C(C(C)C)NC(=O)c2csc(n2)-c2ccc(-c3nc(C(=O)NCC(=O)N4CCCC4C(N)=O)cs3)nc2-c2csc(n2)-c2csc(n2)C(C(O)c2ccccc2)NC(=O)CNC(=O)c2nc1sc2C (stereo not drawn) [Compound 14]", ">", 128]
]}

----------
Test system: Staph. aureus L165 Tour
Test: MIC, microbroth dilution
Format: cell-based
Conditions: inocula 10^4 to 10^5 CFU/ml, Iso-Sensitest broth, 18-24 h, 37° C.

{"columns": ["compound", "unit.label", "modifier.sign", "MIC"],
 "data": [
  ["CNC(=O)CC1NC(=O)c2nc(sc2COC)C(C(C)C)NC(=O)c2csc(n2)-c2ccc(-c3nc(C(=O)NC(CC(C)C)C(=O)O)cs3)nc2-c2csc(n2)-c2csc(n2)C(C(O)c2ccccc2)NC(=O)CNC(=O)c2nc1sc2C (stereo not drawn) [Compound 6]", "microgram/ml", "<", 0.13],
  ["CNC(=O)CC1NC(=O)c2nc(sc2COC)C(C(C)C)NC(=O)c2csc(n2)-c2ccc(-c3nc(C(=O)NCCCC(=O)O)cs3)nc2-c2csc(n2)-c2csc(n2)C(C(O)c2ccccc2)NC(=O)CNC(=O)c2nc1sc2C (stereo not drawn) [Compound 18]", "microgram/ml", "=", 0.25],
  ["CNC(=O)CC1NC(=O)c2nc(sc2COC)C(C(C)C)NC(=O)c2csc(n2)-c2ccc(-c3nc(C(=O)NCCCC=CC(=O)O)cs3)nc2-c2csc(n2)-c2csc(n2)C(C(O)c2ccccc2)NC(=O)CNC(=O)c2nc1sc2C (stereo not drawn) [Compound 40]", "microgram/ml", "=", 0.25],
  ["CNC(=O)CC1NC(=O)c2nc(sc2COC)C(C(C)C)NC(=O)c2csc(n2)-c2ccc(-c3nc(C(=O)NCCCN)cs3)nc2-c2csc(n2)-c2csc(n2)C(C(O)c2ccccc2)NC(=O)CNC(=O)c2nc1sc2C.O=C(O)C(F)(F)F (stereo not drawn) [Compound 36]", "microgram/ml", "=", 0.13],
  ["Cc1sc2nc1C(=O)NCC(=O)NC(C(O)c1ccccc1)c1nc(cs1)-c1nc(cs1)-c1nc(-c3nc(C(=O)NCCCCCC(=O)O)cs3)ccc1-c1nc(cs1)C(=O)NC(C(C)C)c1nc(cs1)C(=O)NC2CC(N)=O (stereo not drawn) [Compound 43]", "microgram/ml", "=", 0.13],
  ["CNC(=O)CC1NC(=O)c2nc(sc2COC)C(C(C)C)NC(=O)c2csc(n2)-c2ccc(-c3nc(C(=O)NCCCCCC(=O)O)cs3)nc2-c2csc(n2)-c2csc(n2)C(C(O)c2ccccc2)NC(=O)CNC(=O)c2nc1sc2C (stereo not drawn) [Compound 19]", "microgram/ml", "=", 0.06],
  ["CNC(=O)CC1NC(=O)c2nc(sc2COC)C(C(C)C)NC(=O)c2csc(n2)-c2ccc(-c3nc(C(=O)NCC(=O)N4CCCC4C(N)=O)cs3)nc2-c2csc(n2)-c2csc(n2)C(C(O)c2ccccc2)NC(=O)CNC(=O)c2nc1sc2C (stereo not drawn) [Compound 14]", "microgram/ml", "=", 0.06],
  ["CNC(=O)CC1NC(=O)c2nc(sc2CO)C(C(C)C)NC(=O)c2csc(n2)-c2ccc(-c3nc(C(=O)NCCCCCC(=O)O)cs3)nc2-c2csc(n2)-c2csc(n2)C(C(O)c2ccccc2)NC(=O)CNC(=O)c2nc1sc2C (stereo not drawn) [Compound 44]", "microgram/ml", "=", 0.13],
  ["CNC(=O)CC1NC(=O)c2nc(sc2COC)C(C(C)C)NC(=O)c2csc(n2)-c2ccc(-c3nc(C(=O)NCCSCCC(=O)O)cs3)nc2-c2csc(n2)-c2csc(n2)C(C(O)c2ccccc2)NC(=O)CNC(=O)c2nc1sc2C (stereo not drawn) [Compound 39]", "microgram/ml", "=", 0.13],
  ["CNC(=O)CC1NC(=O)c2nc(sc2COC)C(C(C)C)NC(=O)c2csc(n2)-c2ccc(-c3nc(C(=O)NCC(=O)O)cs3)nc2-c2csc(n2)-c2csc(n2)C(C(O)c2ccccc2)NC(=O)CNC(=O)c2nc1sc2C (stereo not drawn) [Compound 1]", "microgram/ml", "=", 0.5],
  ["CNC(=O)CC1NC(=O)c2nc(sc2COC)C(C(C)C)NC(=O)c2csc(n2)-c2ccc(-c3nc(C(=O)NC(Cc4ccccc4)C(=O)O)cs3)nc2-c2csc(n2)-c2csc(n2)C(C(O)c2ccccc2)NC(=O)CNC(=O)c2nc1sc2C (stereo not drawn) [Compound 7]", "microgram/ml", "=", 0.25],
  ["CNC(=O)CC1NC(=O)c2nc(sc2COC)C(C(C)C)NC(=O)c2csc(n2)-c2ccc(-c3nc(C(=O)NCCCCCCCC(=O)O)cs3)nc2-c2csc(n2)-c2csc(n2)C(C(O)c2ccccc2)NC(=O)CNC(=O)c2nc1sc2C (stereo not drawn) [Compound 20]", "microgram/ml", "=", 0.25]
]}
